- TARGET_UNDER_TEST: T1, human APJ receptor (hAPJ) (human, UniProt P35414 1-380)
- T1 sequence (looked up): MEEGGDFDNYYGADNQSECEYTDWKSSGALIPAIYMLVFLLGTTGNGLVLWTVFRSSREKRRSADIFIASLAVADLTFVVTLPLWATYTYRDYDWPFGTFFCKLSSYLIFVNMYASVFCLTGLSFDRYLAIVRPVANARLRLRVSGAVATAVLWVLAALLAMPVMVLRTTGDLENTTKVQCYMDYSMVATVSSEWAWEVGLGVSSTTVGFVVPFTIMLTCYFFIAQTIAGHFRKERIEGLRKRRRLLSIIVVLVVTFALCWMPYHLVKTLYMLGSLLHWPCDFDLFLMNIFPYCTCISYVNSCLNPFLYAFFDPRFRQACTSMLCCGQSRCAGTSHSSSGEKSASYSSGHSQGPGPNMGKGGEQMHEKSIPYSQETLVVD
- EXPERIMENT: cell-based or functional assay
Bridges are numbered along the chain shown (N, C = ends). [ ]: non-standard residue; d: D form. hCys = N[C@@H](CCS)C(=O)O; Nle = CCCC[C@H](N)C(=O)O
Measured hAPJ Ca^2+ Flux EC50 accompanies every entry in the list below.
The reply should be a number in nM, with the unit left off.

BINDER	MEASUREMENT_LABEL	UOM	ENDPOINT_VALUE
ERPCLSCKGPLAY (pE at 1; D-Cys (c) at 4; D-hC at 7; disulfide 4-7; D-Nle at 11; D-Ala (a) at 12; D-Tyr (y) at 13; free C-terminal acid) [pE-R-P-c*-L-S-(D-hC)*-K-G-P-(D-Nle)-a-y-OH]	hAPJ Ca^2+ Flux EC50	nM	937
ERPCLSCKGPFAF (pE at 1; hC (L-homocysteine) at 4; disulfide hC4-C7; D-Phe (f) at 11; D-Ala (a) at 12; D-Phe (f) at 13; free C-terminal acid) [pE-R-P-hC*-L-S-C*-K-G-P-f-a-f-OH]	hAPJ Ca^2+ Flux EC50	nM	4.2
Ac-CRPRLS[hCys]KGP[Nle]PF-OH (disulfide 1-7; SMILES CCCC[C@H](NC(=O)[C@@H]1CCCN1C(=O)CNC(=O)[C@H](CCCCN)NC(=O)[C@@H]1CCSSC[C@H](NC(C)=O)C(=O)N[C@@H](CCCNC(=N)N)C(=O)N2CCC[C@H]2C(=O)N[C@@H](CCCNC(=N)N)C(=O)N[C@@H](CC(C)C)C(=O)N[C@@H](CO)C(=O)N1)C(=O)N1CCC[C@H]1C(=O)N[C@@H](Cc1ccccc1)C(=O)O) [Ac-C*-R-P-R-L-S-hC*-K-G-P-Nle-P-F-OH]	hAPJ Ca^2+ Flux EC50	nM	21.4
ERPCLSCKGPLAF (pE at 1; disulfide C4-C7; D-Nle at 11; D-Ala (a) at 12; D-Phe (f) at 13; free C-terminal acid) [pE-R-P-C*-L-S-C*-K-G-P-(D-Nle)-a-f-OH]	hAPJ Ca^2+ Flux EC50	nM	1.9

response.value for Ac-CRPRLSCKGP[Nle]PF-OH (disulfide 1-7; SMILES CCCC[C@H](NC(=O)[C@@H]1CCCN1C(=O)CNC(=O)[C@H](CCCCN)NC(=O)[C@@H]1CSSC[C@H](NC(C)=O)C(=O)N[C@@H](CCCNC(=N)N)C(=O)N2CCC[C@H]2C(=O)N[C@@H](CCCNC(=N)N)C(=O)N[C@@H](CC(C)C)C(=O)N[C@@H](CO)C(=O)N1)C(=O)N1CCC[C@H]1C(=O)N[C@@H](Cc1ccccc1)C(=O)O) [Ac-C*-R-P-R-L-S-C*-K-G-P-Nle-P-F-OH] (field: hAPJ Ca^2+ Flux EC50) = 9.4

response.value for Ac-CRPRLSCKGP[Nle]P-NH2 (disulfide 1-7; SMILES CCCC[C@H](NC(=O)[C@@H]1CCCN1C(=O)CNC(=O)[C@H](CCCCN)NC(=O)[C@@H]1CSSC[C@H](NC(C)=O)C(=O)N[C@@H](CCCNC(=N)N)C(=O)N2CCC[C@H]2C(=O)N[C@@H](CCCNC(=N)N)C(=O)N[C@@H](CC(C)C)C(=O)N[C@@H](CO)C(=O)N1)C(=O)N1CCC[C@H]1C(N)=O) [Ac-C*-R-P-R-L-S-C*-K-G-P-Nle-P-NH2] (field: hAPJ Ca^2+ Flux EC50) = 74.6
